# measured_target: CDK13 (Homo sapiens, UniProt Q14004)
# Sequence (Q14004 whole entry): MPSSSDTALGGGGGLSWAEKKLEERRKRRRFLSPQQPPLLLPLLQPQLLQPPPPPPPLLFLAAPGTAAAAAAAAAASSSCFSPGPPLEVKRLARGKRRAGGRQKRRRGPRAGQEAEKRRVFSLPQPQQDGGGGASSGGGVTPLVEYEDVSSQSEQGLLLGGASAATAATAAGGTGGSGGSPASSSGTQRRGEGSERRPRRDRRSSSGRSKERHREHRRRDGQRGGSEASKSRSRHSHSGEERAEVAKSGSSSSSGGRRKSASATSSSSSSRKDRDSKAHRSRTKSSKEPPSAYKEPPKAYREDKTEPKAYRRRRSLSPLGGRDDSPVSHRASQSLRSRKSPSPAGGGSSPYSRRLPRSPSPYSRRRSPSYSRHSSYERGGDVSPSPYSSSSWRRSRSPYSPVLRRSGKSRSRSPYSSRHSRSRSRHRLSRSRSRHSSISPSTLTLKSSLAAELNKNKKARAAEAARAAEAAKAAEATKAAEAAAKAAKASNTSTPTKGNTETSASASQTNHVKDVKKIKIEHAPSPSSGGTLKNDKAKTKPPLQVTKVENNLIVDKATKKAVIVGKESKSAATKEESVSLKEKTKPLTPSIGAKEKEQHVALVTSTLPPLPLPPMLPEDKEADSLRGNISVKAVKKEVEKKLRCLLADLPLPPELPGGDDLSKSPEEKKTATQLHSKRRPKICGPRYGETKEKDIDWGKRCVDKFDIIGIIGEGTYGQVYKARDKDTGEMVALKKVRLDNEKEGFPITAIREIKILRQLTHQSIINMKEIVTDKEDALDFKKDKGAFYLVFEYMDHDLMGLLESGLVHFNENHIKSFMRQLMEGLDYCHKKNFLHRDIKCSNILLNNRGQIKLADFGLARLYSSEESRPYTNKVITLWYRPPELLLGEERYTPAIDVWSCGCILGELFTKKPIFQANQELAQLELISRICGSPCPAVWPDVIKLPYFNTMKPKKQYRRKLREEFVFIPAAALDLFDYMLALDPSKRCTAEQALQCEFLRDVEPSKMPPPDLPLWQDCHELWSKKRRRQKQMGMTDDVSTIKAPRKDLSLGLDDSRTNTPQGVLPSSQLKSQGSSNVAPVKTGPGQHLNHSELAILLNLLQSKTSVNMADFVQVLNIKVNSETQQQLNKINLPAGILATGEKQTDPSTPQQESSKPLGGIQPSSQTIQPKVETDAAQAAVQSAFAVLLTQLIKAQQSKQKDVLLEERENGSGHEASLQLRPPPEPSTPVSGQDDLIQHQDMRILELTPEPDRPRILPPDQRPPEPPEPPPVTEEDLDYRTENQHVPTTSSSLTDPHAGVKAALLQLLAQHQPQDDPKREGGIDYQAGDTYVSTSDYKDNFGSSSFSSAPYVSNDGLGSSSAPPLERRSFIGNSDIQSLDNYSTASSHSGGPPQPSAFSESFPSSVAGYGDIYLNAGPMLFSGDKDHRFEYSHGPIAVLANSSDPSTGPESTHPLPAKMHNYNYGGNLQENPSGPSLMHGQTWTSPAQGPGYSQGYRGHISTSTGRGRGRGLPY
# Sequence (O75909 whole entry partner): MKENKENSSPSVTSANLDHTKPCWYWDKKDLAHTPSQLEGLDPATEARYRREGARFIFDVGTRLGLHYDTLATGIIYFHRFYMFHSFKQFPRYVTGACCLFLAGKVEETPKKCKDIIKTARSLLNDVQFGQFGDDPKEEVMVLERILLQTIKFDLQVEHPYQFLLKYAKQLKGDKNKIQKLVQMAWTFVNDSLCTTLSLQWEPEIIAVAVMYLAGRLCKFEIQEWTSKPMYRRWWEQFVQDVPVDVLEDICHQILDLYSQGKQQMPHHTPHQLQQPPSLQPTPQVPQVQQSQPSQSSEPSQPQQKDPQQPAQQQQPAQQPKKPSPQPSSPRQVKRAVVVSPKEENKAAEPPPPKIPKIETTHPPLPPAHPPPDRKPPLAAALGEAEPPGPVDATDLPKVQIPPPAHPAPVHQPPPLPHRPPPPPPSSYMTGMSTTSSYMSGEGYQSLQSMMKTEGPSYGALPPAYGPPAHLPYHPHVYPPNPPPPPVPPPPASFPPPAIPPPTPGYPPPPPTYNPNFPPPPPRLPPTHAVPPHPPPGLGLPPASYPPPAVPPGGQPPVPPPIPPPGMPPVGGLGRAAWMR
# test: Western blot degradation of CDK13 (Example 3)
# Type: cell-based
# Set-up: degradation of CDK12/13 protein in leukemia cells KASUMI-1, MV4-11, and Jurkat; endogenous in cells
# experimental_parameters: DC50 classes; cell line not given; read-out: CDK13 degradation Activity
Collected DC50 values appear next to each entry.

Qu. Param readout= DC50; system= CDK13 (Homo sapiens, UniProt Q14004); entry= `CC(=O)N(c1ccc(-c2ccc(N3CCN(c4cnn([C@H](C(=O)N5C[C@H](O)C[C@H]5C(=O)N[C@@H](C)c5ccc(-c6scnc6C)cc5)C(C)C)c4)CC3)nc2)cc1)[C@H]1CC[C@H](Nc2ncc3ccccc3n2)CC1` ; returns value.
Ans. 100 to 500 nM

Qu. Param readout= DC50; system= CDK13 (Homo sapiens, UniProt Q14004); entry= CC(=O)N(c1ccc(-c2cnn(CC3CN(c4ccc5c(c4)C(=O)N(C4CCC(=O)NC4=O)C5=O)C3)c2)cc1)[C@H]1CC[C@H](Nc2ncc3ccccc3n2)CC1 (stereo partly drawn) ; returns value.
Ans. 1000 to 3000 nM

Qu. Param readout= DC50; system= CDK13 (Homo sapiens, UniProt Q14004); entry= `CC(=O)N(c1ccc(-c2cnc(OCCOCC(=O)N[C@H](C(=O)N3C[C@H](O)C[C@H]3C(=O)N[C@@H](C)c3ccc(-c4scnc4C)cc3)C(C)(C)C)nc2)cc1)[C@H]1CC[C@H](Nc2ncc3ccccc3n2)CC1` ; returns value.
Ans. 500 to 1000 nM

* * *

# measured_target: CDK13 (Homo sapiens, UniProt Q14004)
# test: Western blot degradation of CDK13 (Example 2)
# Format: cell-based
# Parameters: degradation of CDK12/13 protein in leukemia cells KASUMI-1, MV4-11, and Jurkat; endogenous in cells
# experimental_parameters: DC50 classes; cell line not given

{"molecule": "N#Cc1ccc(N[C@H]2CC[C@H](N(C(=O)NCc3ccccc3)c3ccc(-c4ccc(=O)n(CCOCCOCCOCCNc5cccc6c5C(=O)N(C5CCC(=O)NC5=O)C6=O)c4)cc3)CC2)nc1 (some centres unmarked)", "CDK13 degradation Activity": "−"}
{"molecule": "Cc1ncsc1-c1ccc([C@H](C)NC(=O)[C@@H]2C[C@@H](O)CN2C(=O)[C@@H](NC(=O)N2CCC3(CC2)CCN(c2ccc(N(C(=O)NCc4ccccc4)[C@H]4CC[C@H](Nc5ccc(C#N)cn5)CC4)cn2)CC3)C(C)(C)C)cc1", "CDK13 degradation Activity": "−"}

* * *

# measured_target: CDK13 (Homo sapiens, UniProt Q14004)
# test: Western blot degradation of CDK13 (Example 3)
# Type: cell-based
# Design: degradation of CDK12/13 protein in leukemia cells KASUMI-1, MV4-11, and Jurkat; endogenous in cells
# experimental_parameters: DC50 classes; cell line not given; read-out: CDK13 degradation Activity
assay_metric: DC50

{"compound": "CC(=O)N(c1ccc(N2CCN(CC3CCN(c4ccc5c(c4)C(=O)N(C4CCC(=O)NC4=O)C5=O)CC3)CC2)cc1)[C@H]1CC[C@H](Nc2ncc3ccccc3n2)CC1 (some centres unmarked)", "DC50": "500 to 1000 nM"}

Qu. Record request: DC50 value, item CC(=O)N(c1ccc(-c2ccc(N3CCN(c4ccc5c(c4)C(=O)N(C4CCC(=O)NC4=O)C5=O)CC3)nc2)cc1)[C@H]1CC[C@H](Nc2ncc3ccccc3n2)CC1 (some centres unmarked)
Ans. < 100 nM

Qu. Record request: DC50 value, item `CC(=O)N(c1ccc(-c2cnc(N3CCN(Cc4cnn([C@H](C(=O)N5C[C@H](O)C[C@H]5C(=O)N[C@@H](C)c5ccc(-c6scnc6C)cc5)C(C)C)c4)CC3)nc2)cc1)[C@H]1CC[C@H](Nc2ncc3ccccc3n2)CC1`
Ans. < 100 nM

Qu. Record request: DC50 value, item `CC(=O)N(c1ccc(-c2ccc3c(c2)CCN(CC(=O)N[C@H](C(=O)N2C[C@H](O)C[C@H]2C(=O)N[C@@H](C)c2ccc(-c4scnc4C)cc2)C(C)(C)C)C3)cc1)[C@H]1CC[C@H](Nc2ncc3ccccc3n2)CC1`
Ans. 1000 to 3000 nM

Qu. Record request: DC50 value, item `CC(=O)N(c1ccc(-c2cnc(OCC3CCN(CC(=O)N[C@H](C(=O)N4C[C@H](O)C[C@H]4C(=O)N[C@@H](C)c4ccc(-c5scnc5C)cc4)C(C)(C)C)CC3)nc2)cc1)[C@H]1CC[C@H](Nc2ncc3ccccc3n2)CC1`
Ans. 500 to 1000 nM
